Hey, just so you know, these numbers are from patent US11661431B2.

target: TLR7 (Homo sapiens (Human), UniProt Q9NYK1); assay: TLR7 human peripheral blood mononuclear cell (PBMC) cell-based assay (GS-986 as agonist; IL-6 and IFNα readout); conditions: human PBMCs, TLR7 agonist GS-986 at 400 nM, 6 hours, antagonist potency; read-out: TLR-7 EC50
Sequence (Q9NYK1 27-1049): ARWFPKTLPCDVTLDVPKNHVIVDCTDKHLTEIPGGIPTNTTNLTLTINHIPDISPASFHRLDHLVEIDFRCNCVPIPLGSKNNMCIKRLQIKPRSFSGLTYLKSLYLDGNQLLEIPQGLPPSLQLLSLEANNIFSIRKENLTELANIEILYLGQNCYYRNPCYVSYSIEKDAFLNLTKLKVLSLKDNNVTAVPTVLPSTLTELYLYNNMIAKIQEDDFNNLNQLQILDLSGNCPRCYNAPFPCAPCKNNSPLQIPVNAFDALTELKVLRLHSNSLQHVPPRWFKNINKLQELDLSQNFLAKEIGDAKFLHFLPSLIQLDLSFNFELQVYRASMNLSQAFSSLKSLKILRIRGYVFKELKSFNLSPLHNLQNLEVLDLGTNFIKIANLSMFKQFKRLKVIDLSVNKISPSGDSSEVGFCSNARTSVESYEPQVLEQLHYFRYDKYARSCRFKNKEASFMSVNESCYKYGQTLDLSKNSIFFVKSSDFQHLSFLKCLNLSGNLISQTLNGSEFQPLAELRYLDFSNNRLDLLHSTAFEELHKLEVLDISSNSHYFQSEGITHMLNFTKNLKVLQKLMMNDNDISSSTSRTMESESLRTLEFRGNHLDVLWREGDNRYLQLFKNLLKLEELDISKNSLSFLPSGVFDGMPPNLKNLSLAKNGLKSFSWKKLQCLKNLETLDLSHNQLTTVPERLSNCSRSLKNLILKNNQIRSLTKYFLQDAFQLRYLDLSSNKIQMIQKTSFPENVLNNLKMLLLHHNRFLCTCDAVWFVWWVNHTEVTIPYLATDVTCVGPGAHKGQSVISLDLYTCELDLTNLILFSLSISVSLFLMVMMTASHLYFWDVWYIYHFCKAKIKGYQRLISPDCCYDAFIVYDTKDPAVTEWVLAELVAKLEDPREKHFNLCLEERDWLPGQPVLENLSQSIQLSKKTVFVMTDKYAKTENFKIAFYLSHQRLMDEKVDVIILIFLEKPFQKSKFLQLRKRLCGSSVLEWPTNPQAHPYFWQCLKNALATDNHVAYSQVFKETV
RESULT TYPE: EC50 (pM)
Enter your answer as a number in pM; do not include the unit.

Lab note: measured EC50 of Cc1c(C2CCN(C(=O)C34COC(CN3)C4)CC2)sc2[nH]c(-c3cc(C)c4ncnn4c3)c(C(C)C)c12 (centres unmarked) was 230

So for Cc1c(-c2[nH]c3sc(C4CCN(C5CCNC5=O)CC4)c(C)c3c2C(C)C)cn2ncnc2c1C (centres unmarked) [Example 287] , the logged EC50 turned out to be 430

GET /value?item= Cc1c(-c2[nH]c3sc([C@H]4C[C@@H](c5nnc([C@@H]6COCCN6)o5)C4)c(C)c3c2C(C)C)cn2ncnc2c1C (single isomer, unassigned) &field=EC50 returns 1250

Recorded EC50 (compound Cc1c(C2CC3COCC(C2)N3CCO)sc2[nH]c(-c3cc(C)c4ncnn4c3)c(C(C)C)c12 (centres unmarked) ): 7190
